- Target system: HDAC8 (Homo sapiens)
- Construct: purchased enzyme (VinciBiochem)
- Sequence (Q9BY41 whole entry): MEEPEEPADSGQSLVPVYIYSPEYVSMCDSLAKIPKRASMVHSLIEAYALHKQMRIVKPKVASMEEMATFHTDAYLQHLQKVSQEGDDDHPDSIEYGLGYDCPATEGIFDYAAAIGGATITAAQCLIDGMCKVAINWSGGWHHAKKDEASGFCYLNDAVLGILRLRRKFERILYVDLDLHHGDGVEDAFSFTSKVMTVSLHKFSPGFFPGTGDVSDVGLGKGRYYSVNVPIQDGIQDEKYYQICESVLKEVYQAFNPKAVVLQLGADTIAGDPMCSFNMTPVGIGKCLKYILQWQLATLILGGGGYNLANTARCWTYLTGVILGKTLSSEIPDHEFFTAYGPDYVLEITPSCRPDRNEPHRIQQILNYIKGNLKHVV
- Experiment description: HDAC-Glo I/II bioluminogenic deacetylase assay
- Format: biochemical
- Condition label: read-out: HDAC8IC50 (μM) ^a
Readout label: IC50

Data request: What value of measured IC50 is listed for Cc1cc(OCC(=O)N2CCC(C(N)=O)CC2)c2c(C)c(Cc3ccccc3)c(=O)oc2c1 [CNP0217284] ?
Data returned: > 300 µM
